Would you mind telling me the reported ED50 of each entry?
# Tested on: Escherichia coli
# ASSAY_TEXT: Protective dose (PD50) against Escherichia coli infected mice
# Type: functional
# CONDITIONS: read-out: PD50

Task: Recorded ED50 for C/C=C/C1=C(C(=O)O)N2C(=O)[C@@H](NC(=O)[C@H](N)c3ccc(O)cc3)[C@H]2CO1 (relative stereo) , please?
Result: > 50 mg/kg

Task: Recorded ED50 for N[C@@H](C(=O)N[C@@H]1C(=O)N2C(C(=O)O)=C(/C=C/C(F)(F)F)OC[C@H]12)c1ccc(O)cc1 , please?
Result: > 50 mg/kg

Task: Recorded ED50 for C=CCC1=C(C(=O)O)N2C(=O)[C@@H](NC(=O)[C@H](N)c3ccc(O)cc3)[C@H]2CO1 , please?
Result: 9.2 mg/kg

The measured values listed here are drawn from ChEMBL document CHEMBL1124257.
